- test-system: T1, CTD^313–448 of human LPL (human, UniProt P06858 340-475)
- T1 construct: lipoprotein lipase (LPL), human, C-terminal domain, residues 313-448; numbers count on: the mature protein; the printed surface densities (85 RU ~ 5 fmols/mm^2) fit about 17 kDa, that is a CTD without the tag (surmise); also called LPL CTD; C-terminal domain of LPL; source: Drosophila S2 cells, secreted as RS-DIII-ent-CTD, purified (anti-uPAR mAb R24 column)
- T1 sequence (looked up): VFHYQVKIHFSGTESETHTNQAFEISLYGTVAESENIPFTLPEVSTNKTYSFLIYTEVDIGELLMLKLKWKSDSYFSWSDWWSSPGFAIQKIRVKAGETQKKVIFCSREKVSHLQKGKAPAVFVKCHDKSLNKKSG
- experiment-summary: SPR; Biacore T200, CM4 chip; LPL CTD captured on immobilised mAb 5D2 (~100–200 RU), GPIHBP1 as analyte 8 nM to 4 µM; 20°C; 10 mM HEPES, 150 mM NaCl, 3 mM EDTA (pH 7.4), 0.05% P20; single- and multi-cycle kinetics, global fit to a 1:1 model
- particulars: both partners purified
readout-name: kon
Answer with the figure and its unit, nothing else.

These recorded examples may help you get a feel for the data.
{"binder": "GPIHBP1^1–131/R38G (domain or fragment, human, UniProt Q8IV16 21-151, looked up, numbers count on: the mature protein; Monomeric by SEC; Carries a single N-linked glycan; also called soluble human GPIHBP1; not shown: uPAR domain III (DIII), N-terminal, cleaved) QTQQEEEEEDEDHGPDDYDEEDEDEVEEEETNRLPGGGSRVLLRCYTCKSLPRDERCNLTQNCSHGQTCTTLIAHGNTESGLLTTHSTWCTDSCQPITKTVEGTQVTMTCCQSSLCNVPPWQSSRVQDPTG", "measured": "1.04e+06 M⁻¹ s⁻¹"}
{"binder": "GPIHBP1^1–131/R38G N-gly (domain or fragment, human, UniProt Q8IV16 21-151, looked up, the single N-linked glycan removed with N-glycanase, numbers count on: the mature protein; As m1 after removal of the N-glycan; source: Drosophila S2 cells, purified, then incubated overnight at 37°C with N-glycanase under native conditions; not shown: uPAR domain III (DIII), N-terminal, cleaved) QTQQEEEEEDEDHGPDDYDEEDEDEVEEEETNRLPGGGSRVLLRCYTCKSLPRDERCNLTQNCSHGQTCTTLIAHGNTESGLLTTHSTWCTDSCQPITKTVEGTQVTMTCCQSSLCNVPPWQSSRVQDPTG", "measured": "1.06e+06 M⁻¹ s⁻¹"}
{"binder": "GPIHBP1^34–131/R38G (domain or fragment, human, UniProt Q8IV16 54-151, looked up, numbers count on: the mature protein; Monomeric by SEC; also called truncated GPIHBP1 lacking the acidic domain; isolated LU domain; source: Drosophila S2 cells; not shown: uPAR domain III (DIII), N-terminal, cleaved) LPGGGSRVLLRCYTCKSLPRDERCNLTQNCSHGQTCTTLIAHGNTESGLLTTHSTWCTDSCQPITKTVEGTQVTMTCCQSSLCNVPPWQSSRVQDPTG", "measured": "100000 M⁻¹ s⁻¹"}

In the following, a different binder is considered.
Lookup result for GPIHBP1^1–131 (domain or fragment, human, UniProt Q8IV16 21-151, looked up, numbers count on: the mature protein; not shown: uPAR domain III (DIII), N-terminal, cleaved) QTQQEEEEEDEDHGPDDYDEEDEDEVEEEETNRLPGGRSRVLLRCYTCKSLPRDERCNLTQNCSHGQTCTTLIAHGNTESGLLTTHSTWCTDSCQPITKTVEGTQVTMTCCQSSLCNVPPWQSSRVQDPTG ; measured kon: 1.12e+06 M⁻¹ s⁻¹
